These measurements were taken from BindingDB's records for doi:10.1016/j.ejmech.2018.06.047.

experiment: Inhibition of ARTD10 (unknown origin)-induced cell death expressed in human HeLa cells after 10 days by methylene blue staining based colony formation assay
result type: IC50
Param answer (str): number followed by unit.

INSERT INTO assay_data (mol_smiles, assay_result) VALUES
  ('NC(=O)c1ccc(Oc2ccc(C=O)cc2)cc1', '1000 nM');

Query compound follows.
IC50 lookup needed for NC(=O)c1ccc(OCc2ccccc2F)cc1 , thanks.
2000 nM
